Values were extracted from patent US20250026813A1.

Quick reference: IC50 of the listed items.
# tested.on: RBD domain of the spike protein of SARS-CoV-2 virus (Acro Biosystems SPD-C52H3) (SARS-CoV-2, UniProt P0DTC2 319-537)
Report only the number, with the unit nM understood.

Notebook: IMPI-005 (antibody, V domains shown) VH: EVQLVESGGGLIQPGGSLRLSCAASGFTVSSNYMNWVRQAPGKGLEWVSVIYSGGSTYYADSVKGRFTISRDNSKNTLFLQMNSLRAEDSAVYYCARDLGPYGVDVWGQGTTVTVSS VL: DIQLTQSPSFLSASVGDRVTITCWASQGISSYLAWYQQKPGKAPKLLIYAASTLQSGVPSRFSGSGSGTEFTLTISSLQPEDFATYYCQELNSYPLTFGQGTRLEIK , IC50 read as 3.18

Notebook: IMPI-047 (antibody, V domains shown) VH: EVQLVESGGGLIQPGGSLRLSCAASGFTVSSNYMNWVRQAPGKGLEWVSVIYSGGSTYYADSVKGRFTISRDNSKNTLYLQMNSLRTEDTAVYYCARDLVAYGMDVWGQGTTVTVSS VL: DIQLTQSPSFLSASVGDRVTITCWASQGISSYLAWYQQKPGKAPKVLIYAASTLQSGVPSRFSGSGSGTEFTLTISSLQPEDFATYYCQLLNSNPLTFGGGTKVEIK , IC50 read as 3.36

Notebook: IMPI-059 (antibody, V domains shown) VH: EVQLVESGGGLIQPGGSLRLSCAASGFTVSSIYMSWVRQAPGKGLEWVSIIYSRGSTDYADSVKGRFTISRDISKNTLYLQMNSLRAEDTAVYYCARDGTMVRGVHAFDIWGQGTMVTVSS VL: DIQMTQSPPSLSASIGDRVTITCQASQDISNYLNWYQQKPGKAPKLLIYDASNLETGVPSRFSGSGSGTDFTLTISNLQPEDIVTYYCQQYDNLPSSFGQGTKLEIK , IC50 read as 2.02

Notebook: IMPI-056 (antibody, V domains shown) VH: EVQLVESGGGLIQPGGSLRLSCAASGLTVSSNYMNWVRQAPGKKLEWVSVIYSGGSTFYADSVRGRFTISRDNSKNTLFLQMNSLRAEDSAVYYCARDLGPYGVDVWGQGTTVTVSS VL: DIQLTQSPSFLSASVGDRVTITCWASQGISSYLAWYQQKPGKAPKLLIYAASTLQSGVPSRFSGSGSGTEFTLTISSLQPEDFATYYCQQLNSYPLTFGQGTRLEIK , IC50 read as 1.93

Notebook: IMPI-017 (antibody, V domains shown) VH: EVQLVESGGGLIQPGGSLRLSCAAAGLTVSSNYMNWVRQVPGKGLEWVSVIYSGGSTYYADSVKGRFTISRDNSKNTLYLQMNSLRAEDTAVYYCARDLGTLGMDVWGQGTTVTVSS VL: DIQLTQSPSFLSASVGDRVTITCWASQGISTYLAWYQQKPGKAPKLLIYAASTLQSGVPSRFSGSGSGTEFTLTISSLQPEDFATYYCQQLNSYLPTFGQGTKVEIK , IC50 read as 0.832
